Tested system: human CXCR3A (Homo sapiens (Human))
Method description: FLIPR assay (inhibition of CXCL10-induced calcium signal)
Measurement parameters: engineered CHO-K1 cells expressing human CXCR3A coupled to Galpha(16); Fluo-4-AM; CXCL10 agonist 20 nM; mean values where determined several times
Test readout: IC50 (nM)

P: Cc1ccc(N2CCc3cccc(N4CCN(C(=O)Cn5cnc6cccnc65)[C@H](C)C4)c3C2)cn1
Q: Cc1cc(C)n(CC(=O)N2CCN(c3ccc(C(F)(F)F)c4c3CN(c3nc5ccc(F)cc5s3)CC4)C[C@H]2C)n1
R: CC(C)C(=O)N1CCc2cccc(N3CCN(C(=O)Cn4cnc5cccnc54)[C@H](C)C3)c2C1
S: CCc1ncc(N2CCc3c(C(F)(F)F)ccc(N4CCN(C(=O)Cn5nc(C)nc5C)[C@H](C)C4)c3C2)cn1
Rank the listed molecules according to IC50, from the largest value downward. Write the labels out in the order the request specifies.
R, S, Q, P

====

Tested system: human CXCR3A (Homo sapiens (Human), UniProt P49682)
Sequence (P49682 whole entry): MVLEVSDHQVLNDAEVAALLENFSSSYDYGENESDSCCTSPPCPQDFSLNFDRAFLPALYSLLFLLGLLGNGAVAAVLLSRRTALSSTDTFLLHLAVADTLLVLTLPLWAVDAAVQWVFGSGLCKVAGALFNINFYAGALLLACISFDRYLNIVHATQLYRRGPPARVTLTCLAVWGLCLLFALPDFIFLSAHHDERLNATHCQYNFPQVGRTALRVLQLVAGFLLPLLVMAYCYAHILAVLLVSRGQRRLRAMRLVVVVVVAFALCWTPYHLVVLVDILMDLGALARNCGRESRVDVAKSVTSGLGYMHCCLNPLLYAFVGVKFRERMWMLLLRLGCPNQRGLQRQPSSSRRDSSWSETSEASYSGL
Method description: FLIPR assay (inhibition of CXCL10-induced calcium signal)
Measurement parameters: engineered CHO-K1 cells expressing human CXCR3A coupled to Galpha(16); Fluo-4-AM; CXCL10 agonist 20 nM; mean values where determined several times
pIC50: −log10 of the molar value.
Test readout: pIC50

// worked examples, pIC50 included
Data request, read-out pIC50, for C[C@@H]1CN(c2cccc3c2CN(c2ccc(C#N)cc2)CC3)CCN1C(=O)Cn1cnc2cccnc21 [Example 95]
8.11

Repeat with C[C@@H]1CN(c2ccc(Br)c3c2CN(C(=O)OCc2ccccc2)CC3)CCN1C(=O)Cn1cnc2cccnc21 [Example 144]
7.07

Moving on to the next compound: C[C@@H]1CN(c2cccc3c2CN(Cc2ccc(Cl)cc2)CC3)CCN1C(=O)Cn1cnc2cccnc21 [Example 143]
6.33

Same question for CCOc1ncc(N2CCc3c(C(F)(F)F)ccc(N4CCN(C(=O)Cn5nc(C)cc5C)[C@H](C)C4)c3C2)cn1 [Example 55] please.
8.00

I: C[C@@H]1CN(c2cccc3c2CN(C(=O)CCc2ccccc2)CC3)CCN1C(=O)Cn1cnc2cccnc21 [Example 83]
II: COc1ncc(N2CCc3c(C(F)(F)F)ccc(N4CCN(C(=O)Cn5cccn5)[C@H](C)C4)c3C2)cn1 [Example 25]
Between item I and item II , which reported pIC50 is smaller? Indicate which entry you chose by stating its label.
I

====

Tested system: human CXCR3A (Homo sapiens (Human))
Method description: FLIPR assay (inhibition of CXCL10-induced calcium signal)
Measurement parameters: engineered CHO-K1 cells expressing human CXCR3A coupled to Galpha(16); Fluo-4-AM; CXCL10 agonist 20 nM; mean values where determined several times
Test readout: IC50 (nM)

a: Cc1ccn(CC(=O)N2CCN(c3ccc(C(F)(F)F)c4c3CN(c3nc(C(F)(F)F)cs3)CC4)C[C@H]2C)n1
b: C[C@@H]1CN(c2cccc3c2CN(c2cnc(C(F)(F)F)nc2)CC3)CCN1C(=O)Cn1cnc2cccnc21
c: Cc1nc(C)n(CC(=O)N2CCN(c3ccc(F)c4c3CN(c3cnc(C5CC5)nc3)CC4)C[C@H]2C)n1
Reorder the list above by recorded IC50 in ascending order. Please respond by ranking the labels in the order requested.
b, c, a
(b: 1.74 nM, c: 5.42 nM, a: 12 nM)
